Hi there, I'd appreciate the recorded residual activity for every entry that follows.
Biological target: Ephrin type-B receptor 1 (Homo sapiens)
Sequence (whole entry): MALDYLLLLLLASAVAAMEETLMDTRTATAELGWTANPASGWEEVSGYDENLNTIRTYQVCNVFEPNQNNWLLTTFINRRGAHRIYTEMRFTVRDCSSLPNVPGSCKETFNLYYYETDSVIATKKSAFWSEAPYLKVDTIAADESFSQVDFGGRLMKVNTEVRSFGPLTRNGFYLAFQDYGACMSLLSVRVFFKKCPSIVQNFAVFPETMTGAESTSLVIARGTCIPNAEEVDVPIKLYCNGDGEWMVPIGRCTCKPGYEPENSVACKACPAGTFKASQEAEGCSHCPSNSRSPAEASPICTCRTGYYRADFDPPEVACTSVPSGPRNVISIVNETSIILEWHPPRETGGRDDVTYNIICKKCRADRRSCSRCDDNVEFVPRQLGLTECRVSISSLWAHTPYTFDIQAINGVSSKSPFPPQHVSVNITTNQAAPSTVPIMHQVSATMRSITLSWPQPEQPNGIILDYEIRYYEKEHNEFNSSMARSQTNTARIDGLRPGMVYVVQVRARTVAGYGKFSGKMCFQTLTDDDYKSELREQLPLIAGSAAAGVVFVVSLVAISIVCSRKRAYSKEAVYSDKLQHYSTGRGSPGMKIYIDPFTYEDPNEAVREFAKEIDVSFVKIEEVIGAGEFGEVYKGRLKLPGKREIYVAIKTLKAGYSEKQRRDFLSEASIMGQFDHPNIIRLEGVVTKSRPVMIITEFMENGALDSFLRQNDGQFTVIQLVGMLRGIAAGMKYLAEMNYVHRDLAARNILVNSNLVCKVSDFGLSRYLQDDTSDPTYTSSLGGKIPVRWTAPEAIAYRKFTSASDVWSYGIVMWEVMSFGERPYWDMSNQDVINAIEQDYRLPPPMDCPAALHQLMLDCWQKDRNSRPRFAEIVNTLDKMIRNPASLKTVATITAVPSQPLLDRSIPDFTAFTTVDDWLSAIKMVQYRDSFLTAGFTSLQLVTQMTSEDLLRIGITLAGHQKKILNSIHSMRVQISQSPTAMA
Conditions: at 1 µM
Express it in %; write the number only.

Challenge: Write residual activity of COc1cc2ncnc(Nc3ccc(OCc4ccccc4)cc3)c2cc1OC ; system used: Ephrin type-B receptor 1 (Homo sapiens)
Response given: 94

Challenge: Write residual activity of CC(C)(C)c1cc(C=C(C#N)C#N)cc(Br)c1O ; system used: Ephrin type-B receptor 1 (Homo sapiens)
Response given: 106

Challenge: Write residual activity of O=c1[nH]c2ccccc2n1C1CCN(Cc2ccc(-c3nc4cc5[nH]cnc5cc4nc3-c3ccccc3)cc2)CC1 ; system used: Ephrin type-B receptor 1 (Homo sapiens)
Response given: 93

Challenge: Write residual activity of COc1cc(OC)c(/C=C2\C(=O)Nc3ccccc32)c(OC)c1 ; system used: Ephrin type-B receptor 1 (Homo sapiens)
Response given: 100

Challenge: Write residual activity of CCn1cnc2c(Nc3cccc(Cl)c3)nc(N[C@@H]3CCCC[C@@H]3N)nc21 ; system used: Ephrin type-B receptor 1 (Homo sapiens)
Response given: 32

Challenge: Write residual activity of CC(C)[C@H](CO)Nc1nc(Nc2cccc(Cl)c2)c2ncn(C(C)C)c2n1 ; system used: Ephrin type-B receptor 1 (Homo sapiens)
Response given: 63
